Conditions: in DMF, 313.15 K
MEASURED_METRIC: solubility (mole fraction)

>  <RECORD_SMILES>
C[C@]12CCC3=C4CCC(=O)C=C4CC[C@H]3[C@@H]1CC[C@@]2(O)CC#N

>  <ASSAY_VALUE>
0.0364

$$$$

---

Details: in n-propanol, 303.15 K

>  <RECORD_SMILES>
C[C@]12CCC3=C4CCC(=O)C=C4CC[C@H]3[C@@H]1CC[C@@]2(O)CC#N

>  <solubility (mole fraction)>
0.00345

$$$$

---

Settings: in acetonitrile, 308.15 K

>  <RECORD_SMILES>
C[C@]12CCC3=C4CCC(=O)C=C4CC[C@H]3[C@@H]1CC[C@@]2(O)CC#N

>  <solubility (mole fraction)>
0.00363

$$$$

---

Details: in DMF, 298.15 K

>  <RECORD_SMILES>
C[C@]12CCC3=C4CCC(=O)C=C4CC[C@H]3[C@@H]1CC[C@@]2(O)CC#N

>  <solubility (mole fraction)>
0.0333

$$$$

---

Details: in methanol, 278.15 K

>  <RECORD_SMILES>
C[C@]12CCC3=C4CCC(=O)C=C4CC[C@H]3[C@@H]1CC[C@@]2(O)CC#N

>  <solubility (mole fraction)>
0.00209

$$$$

---

Details: in ethanol, 318.15 K

>  <RECORD_SMILES>
C[C@]12CCC3=C4CCC(=O)C=C4CC[C@H]3[C@@H]1CC[C@@]2(O)CC#N

>  <solubility (mole fraction)>
0.00637

$$$$

---

Conditions: in THF, 288.15 K

>  <RECORD_SMILES>
C[C@]12CCC3=C4CCC(=O)C=C4CC[C@H]3[C@@H]1CC[C@@]2(O)CC#N

>  <solubility (mole fraction)>
0.0138

$$$$

---

Conditions: in MTBE, 318.15 K

>  <RECORD_SMILES>
C[C@]12CCC3=C4CCC(=O)C=C4CC[C@H]3[C@@H]1CC[C@@]2(O)CC#N

>  <solubility (mole fraction)>
0.000531

$$$$

---

Conditions: in ethyl acetate, 283.15 K
MEASURED_METRIC: solubility (mole fraction)

>  <RECORD_SMILES>
C[C@]12CCC3=C4CCC(=O)C=C4CC[C@H]3[C@@H]1CC[C@@]2(O)CC#N

>  <MEASURED_METRIC>
solubility (mole fraction)

>  <ASSAY_VALUE>
0.00192

$$$$

---

Details: in ethyl acetate, 318.15 K

>  <RECORD_SMILES>
C[C@]12CCC3=C4CCC(=O)C=C4CC[C@H]3[C@@H]1CC[C@@]2(O)CC#N

>  <solubility (mole fraction)>
0.00414

$$$$

---

Details: in methanol, 308.15 K

>  <RECORD_SMILES>
C[C@]12CCC3=C4CCC(=O)C=C4CC[C@H]3[C@@H]1CC[C@@]2(O)CC#N

>  <solubility (mole fraction)>
0.00434

$$$$

---

Details: in ethyl acetate, 288.15 K
MEASURED_METRIC: solubility (mole fraction)

>  <RECORD_SMILES>
C[C@]12CCC3=C4CCC(=O)C=C4CC[C@H]3[C@@H]1CC[C@@]2(O)CC#N

>  <ASSAY_VALUE>
0.00215

$$$$
